Experiment: Partition coefficient (logD7.4)
Details: octanol/water, pH 7.4, logD
readout: logD

Recorded logD, per entry:
CCC(C)CNC(=O)C[C@H](O)C(CC(C)C)NC(=O)C(CCCCNC(N)=O)NC(=O)C(Cc1cccc2ccccc12)Cc1cccc2ccccc12 (stereo partly drawn) :: 5.31
C/N=C(\S)NCCCCC(NC(=O)C(Cc1cccc2ccccc12)Cc1cccc2ccccc12)C(=O)NC(CC(C)C)[C@@H](O)CC(=O)NC(CC(C)C)C(=O)NCc1ccccc1 (stereo partly drawn) :: 6.7

Let's switch to this molecule now.
INPUT: Could you share which logD value was measured for CNC(=S)NCCCCC(NC(=O)C(Cc1ccccc1)S(=O)(=O)C(C)(C)C)C(=O)NC(CC1CCCCC1)[C@@H](O)CC(=O)N1CCOC(CCN)C1 (stereo partly drawn) ?
OUTPUT: 2.64

---

Test: solubility in phosphate buffer at pH 7.4
Type: physicochemical
readout: solubility

C/N=C(\S)NCCCCC(NC(=O)C(Cc1cccc2ccccc12)Cc1cccc2ccccc12)C(=O)NC(CC(C)C)[C@@H](O)CC(=O)NC(CC(C)C)C(=O)NCc1ccccc1 (some centres not stated) :: < 10 µg/mL

Let's switch to this compound now.
INPUT: Could you share which solubility value was measured for CCC(C)CNC(=O)C[C@H](O)C(CC(C)C)NC(=O)C(CCCC/N=C(/S)NC)NC(=O)C(Cc1cccc2ccccc12)Cc1cccc2ccccc12 (some centres not stated) ?
OUTPUT: < 10 µg/mL

---

IC50 values for the molecules below.
Target: Renin (Homo sapiens, UniProt P00797)
Experiment: Inhibitory activity against monkey plasma renin.
Type: cell-free, Cercopithecidae
Conditions: target entry is the homologue from another species
Answer in µM, number only, no unit symbol.

Recorded IC50, per entry:
CCC(C)CNC(=O)C[C@H](O)C(CC(C)C)NC(=O)C(CCCCCNC(=S)NC)NC(=O)C(Cc1cccc2ccccc12)Cc1cccc2ccccc12 (stereo partly drawn) :: 0.039
CCC(C)CNC(=O)C[C@H](O)C(CC(C)C)NC(=O)C(CCCCN)NC(=O)C(Cc1cccc2ccccc12)Cc1cccc2ccccc12 (stereo partly drawn) :: 3.49

INPUT: Give Renin (Homo sapiens, UniProt P00797) IC50 for CCC(C)CNC(=O)C[C@H](O)C(CC(C)C)NC(=O)C(CC#CCNC(C)=O)NC(=O)C(Cc1cccc2ccccc12)Cc1cccc2ccccc12 (stereo in doubt; 55b)
OUTPUT: 0.041

---

Test: Partition coefficient (logD7.4)
Conditions: octanol/water, pH 7.4, logD
readout: logD
Keep it simple and answer with nothing but the number.

Recorded logD, per entry:
CCC(C)CNC(=O)C[C@H](O)C(CC1CCCCC1)NC(=O)C(CCCC/N=C(/S)NC)NC(=O)C(Cc1cccc2ccccc12)Cc1cccc2ccccc12 (stereo partly drawn) :: 6.63
CC(C)(C)OC(=O)NCC#CCC(NC(=O)C(Cc1ccccc1)NS(=O)(=O)N1CCOCC1)C(=O)NC(CC1CCCCC1)[C@@H](O)CC(=O)N1CCOC(CCN)C1 (stereo in doubt; 61b) :: 3.13
C/N=C(\S)NCCCCC(NC(=O)C(CC(=O)N1CCOCC1)Cc1cccc2ccccc12)C(=O)NC(CC1CCCCC1)[C@@H](O)CC(=O)N1CCOC(CCN)C1 (stereo partly drawn) :: 1.68
CCC(C)CNC(=O)C[C@H](O)C(CC(C)C)NC(=O)C(CCCCNS(=O)(=O)c1ccc(C)cc1)NC(=O)C(Cc1cccc2ccccc12)Cc1cccc2ccccc12 (stereo partly drawn) :: 6.7
CCC(C)CNC(=O)C[C@H](O)C(CC(C)C)NC(=O)C(CCNC(C)=O)NC(=O)C(Cc1cccc2ccccc12)Cc1cccc2ccccc12 (stereo partly drawn) :: 4.4
CCC(C)CNC(=O)C[C@H](O)C(CC(C)C)NC(=O)C(CCNC(=S)NC)NC(=O)C(Cc1cccc2ccccc12)Cc1cccc2ccccc12 (stereo partly drawn) :: 5.7

INPUT: Could you share which logD value was measured for CS/C(=N\CCCCC(NC(=O)C(Cc1cccc2ccccc12)Cc1cccc2ccccc12)C(=O)NC(CC(C)C)[C@@H](O)CC(=O)N1CCOC(CCN)C1)NC#N (stereo partly drawn) ?
OUTPUT: 4.67

INPUT: Could you share which logD value was measured for NCCC1CN(C(=O)C[C@H](O)C(CC2CCCCC2)NC(=O)C(CC#CCNC=O)NC(=O)C(Cc2cccc3ccccc23)Cc2cccc3ccccc23)CCO1 (stereo partly drawn) ?
OUTPUT: 5.44

INPUT: Could you share which logD value was measured for CCC(C)CNC(=O)C[C@H](O)C(CC(C)C)NC(=O)C(CCCn1cccc1)NC(=O)C(Cc1cccc2ccccc12)Cc1cccc2ccccc12 (stereo partly drawn) ?
OUTPUT: 7.09

INPUT: Could you share which logD value was measured for CCC(C)CNC(=O)C[C@H](O)C(CC(C)C)NC(=O)C(CCCCN)NC(=O)C(Cc1cccc2ccccc12)Cc1cccc2ccccc12 (stereo partly drawn) ?
OUTPUT: 5.25

INPUT: Could you share which logD value was measured for C/N=C(\S)NCC#CCC(NC(=O)C(Cc1ccccc1)NS(=O)(=O)N1CCOCC1)C(=O)NC(CC1CCCCC1)[C@@H](O)CC(=O)N1CCOC(CCN)C1 (stereo partly drawn) ?
OUTPUT: 2.9

INPUT: Could you share which logD value was measured for C/N=C(\S)NCCCCC(NC(=O)C(Cc1ccccc1)NS(=O)(=O)N1CCOCC1)C(=O)NC(CC1CCCCC1)[C@H](O)C(F)(F)C(=O)N1CCOC(CCN)C1 (stereo partly drawn) ?
OUTPUT: 2.93

INPUT: Could you share which logD value was measured for CCC(C)CNC(=O)C[C@H](O)C(CC(C)C)NC(=O)C(C/C=C/C/N=C(/S)NC)NC(=O)C(Cc1cccc2ccccc12)Cc1cccc2ccccc12 (stereo partly drawn) ?
OUTPUT: 5.23

---

pIC50 values for the compounds below.
Molecular target: Renin (Homo sapiens, UniProt P00797)
Sequence (P00797 whole entry): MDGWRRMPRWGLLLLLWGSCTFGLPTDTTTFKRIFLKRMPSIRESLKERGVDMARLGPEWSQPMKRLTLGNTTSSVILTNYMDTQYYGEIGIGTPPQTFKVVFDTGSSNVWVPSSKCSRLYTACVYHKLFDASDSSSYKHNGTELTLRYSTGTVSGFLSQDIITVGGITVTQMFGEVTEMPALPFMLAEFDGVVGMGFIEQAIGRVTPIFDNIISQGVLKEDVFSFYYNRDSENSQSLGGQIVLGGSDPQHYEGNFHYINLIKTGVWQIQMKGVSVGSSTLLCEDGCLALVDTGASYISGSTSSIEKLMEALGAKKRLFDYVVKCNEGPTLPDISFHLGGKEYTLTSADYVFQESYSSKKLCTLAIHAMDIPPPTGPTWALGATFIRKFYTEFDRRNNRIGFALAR
Assay: Inhibitory activity against monkey plasma renin.
Format: cell-free, Cercopithecidae
Conditions: target entry is the homologue from another species
Keep it numeric: pIC50 is minus log10 of the concentration in mol/L.

CS/C(=N\CCCCC(NC(=O)C(CC(=O)N1CCOCC1)Cc1cccc2ccccc12)C(=O)NC(CC(C)C)[C@@H](O)CC(=O)N1CCOC(CCN)C1)NC#N (stereo partly specified) :: 6.46
CC(C)CC(NC(=O)C[C@H](O)C(CC(C)C)NC(=O)C(CCCCNC(=N)N[N+](=O)[O-])NC(=O)C(Cc1cccc2ccccc12)Cc1cccc2ccccc12)C(=O)NCc1ccccc1 (stereo partly specified) :: 7.31
CCC(C)CNC(=O)C[C@H](O)C(CC(C)C)NC(=O)C(CCCCC/N=C(\N)N[N+](=O)[O-])NC(=O)C(Cc1cccc2ccccc12)Cc1cccc2ccccc12 (stereo partly specified) :: 7.70
CC(C)CC(NC(=O)C(CCCCNC(=O)OCc1ccccc1)NC(=O)C(Cc1ccccc1)NS(=O)(=O)N1CCOCC1)C(=O)C(F)(F)C(=O)N1CCOC(CCN)C1 (stereo unspecified) :: 8.48
CCC(C)CNC(=O)C[C@H](O)C(CC(C)C)NC(=O)C(CC#CCNC(C)=O)NC(=O)C(Cc1cccc2ccccc12)Cc1cccc2ccccc12 (stereo in doubt; 55a) :: 8.34

Let's switch to this compound now.
INPUT: Could you share which pIC50 value was measured for CCC(C)CNC(=O)C[C@H](O)C(CC(C)C)NC(=O)C(CC#CCNC(=O)OCc1ccccc1)NC(=O)C(Cc1cccc2ccccc12)Cc1cccc2ccccc12 (stereo partly specified) ?
OUTPUT: 6.61

---

Target: Renin (Homo sapiens)
Test: Inhibitory activity against monkey plasma renin.
Format: cell-free, Cercopithecidae
Conditions: target entry is the homologue from another species
readout: IC50

CCC(C)CNC(=O)C[C@H](O)C(CC(C)C)NC(=O)C(CCCCNC(=O)NC)NC(=O)C(Cc1cccc2ccccc12)Cc1cccc2ccccc12 (stereo partly specified) :: 44 nM

INPUT: Give Renin (Homo sapiens) IC50 for CCC(C)CNC(=O)C[C@H](O)C(CC1CCCCC1)NC(=O)C(CCCC/N=C(/S)NC)NC(=O)C(Cc1cccc2ccccc12)Cc1cccc2ccccc12 (stereo partly specified)
OUTPUT: 47 nM

INPUT: Give Renin (Homo sapiens) IC50 for CCC(C)CNC(=O)C[C@H](O)C(CC(C)C)NC(=O)C(CCCCn1cccc1)NC(=O)C(Cc1cccc2ccccc12)Cc1cccc2ccccc12 (stereo partly specified)
OUTPUT: 144 nM

INPUT: Give Renin (Homo sapiens) IC50 for NCCC1CN(C(=O)C[C@H](O)C(CC2CCCCC2)NC(=O)C(Cc2c[nH]cn2)NC(=O)C(Cc2ccccc2)NS(=O)(=O)N2CCOCC2)CCO1 (stereo partly specified)
OUTPUT: 5 nM

INPUT: Give Renin (Homo sapiens) IC50 for CCC(C)CNC(=O)C[C@H](O)C(CC(C)C)NC(=O)C(CCCCCCN=C(S)NC)NC(=O)C(Cc1cccc2ccccc12)Cc1cccc2ccccc12 (stereo partly specified)
OUTPUT: 44 nM

INPUT: Give Renin (Homo sapiens) IC50 for CC(C)CC(NC(=O)C[C@H](O)C(CC(C)C)NC(=O)C(CCCCNC(=O)OCc1ccccc1)NC(=O)C(Cc1cccc2ccccc12)Cc1cccc2ccccc12)C(=O)NCc1ccccc1 (stereo partly specified)
OUTPUT: 8000 nM
